Sourced from PubChem BioAssay (NCI)

system: K-562 leukemia; assay: NCI-60 one-dose screen, 48 h (100 = growth as untreated, 0 = no growth, -100 = all killed); conditions: 10 µM unless noted
The panel holds about 83,000 compounds, 20% with a hit somewhere; the sample as a whole holds those more often.
Lab note - cut at 90% for growth: Yes if strictly below, No if not.

COMPOUND | CLASS NAME
Cn1ccc2c3c(ccc21)CC3=O | No
COc1ccc2[nH]cc(-c3nc(-c4c[nH]c5ccncc45)cs3)c2c1 | Yes
O=C1/C(=C/c2cccs2)SC(=S)N1CCCN1CCOCC1 | Yes
CC1=C(C(=O)OC(C)C)C(c2ccc3c(c2)OCO3)NC(=S)N1 (stereo not given) | No
O=C(CSc1nnc2n1S(=O)(=O)c1ccccc1N2c1ccccc1)Nc1nc2ccc(F)cc2s1 | No
Cc1ccc(-c2nc(N3CCNCC3)c3oc(-c4ccccc4)nc3n2)cc1 | Yes
Cc1c(-n2nnc(-c3nc4ccccc4s3)c2N)c(=O)n(-c2ccccc2)n1C | No
CCCCC[C@@H]1Cc2cc(O)c(C(=O)O)c3c2[C@H](C[C@]2(OC[C@@H](CC(=O)[C@@](C)(CC)C(=O)OC)[C@@H]2C)O3)O1 | No
Cc1ccc(-c2nn(-c3ccccc3)cc2C=C2C(=O)ON=C2C(C)C)cc1 | Yes
COC(=O)c1c2c(c(C)[n+]([O-])c1C)C(=O)C=C(NCc1ccc(OC)cc1)C2=O | Yes
